System: HOP-62
Experiment: NCI tumour cell line growth inhibition, 48 h
Activity calls are given as the source filed them. Cut-off read from the data, not from the text of the source: active = GI50 up to about 1.1 µM and inactive = higher.
Entries and their GI50

{"STRUCTURE_AS_SMILES": "O=c1oc2ccccc2c(Nc2ccc3c(c2)Sc2ccccc2O3)c1[N+](=O)[O-]", "GI50": "29.4 µM (inactive)"}
{"STRUCTURE_AS_SMILES": "CCCOP(=S)(N1CC1)N1CC1", "GI50": "> 100 µM (inactive)"}
{"STRUCTURE_AS_SMILES": "c1cc2cc(c1)CN1CCNCCN(CCNCC1)Cc1cccc(c1)CN1CCNCCN(CCNCC1)C2", "GI50": "> 100 µM (inactive)"}
{"STRUCTURE_AS_SMILES": "Nc1nc(Cl)cc(NCCCCCCCCNc2cc(Cl)nc(N)n2)n1", "GI50": "27.8 µM (inactive)"}
{"STRUCTURE_AS_SMILES": "O=C1CSc2ccnc(=O)n21", "GI50": "> 100 µM (inactive)"}
{"STRUCTURE_AS_SMILES": "O=c1cccc(Cl)[nH]1", "GI50": "> 100 µM (inactive)"}

---

Tested on: NCI-H23
Experiment: NCI tumour cell line growth inhibition, 48 h
Calls of active or inactive are those of the source. Cut-off read from the data, not from the text of the source: active = GI50 up to about 1.1 µM and inactive = higher.
Entries and their GI50
OUTCOME_MEASURE: GI50

{"MOLECULE": "NC(=O)OCC(COc1ccc(Cl)cc1)OC(=O)c1cc([N+](=O)[O-])cc([N+](=O)[O-])c1 (stereo unspecified)", "ASSAY_VALUE": "> 100 µM (inactive)"}
{"MOLECULE": "C/C(CN1C(=O)c2ccccc2C1=O)=N\\NS(=O)(=O)c1cccc([N+](=O)[O-])c1", "ASSAY_VALUE": "> 100 µM (inactive)"}
{"MOLECULE": "CCN1C(=O)C(C)S/C1=N\\NC(=O)CSc1nc2ccccc2c(=O)n1CC (stereo unspecified)", "ASSAY_VALUE": "> 100 µM (inactive)"}
{"MOLECULE": "C[C@H](OC(=O)/C=C/c1ccc(O)c(O)c1)[C@H](C)OC(=O)/C=C/c1ccc(O)c(O)c1", "ASSAY_VALUE": "4.29 µM (inactive)"}
{"MOLECULE": "S=C(NC/C(Br)=C/Br)Nc1cccc2ccccc12", "ASSAY_VALUE": "23.5 µM (inactive)"}
{"MOLECULE": "CCOC(=O)c1cn(CC)c2ccc3c(c2c1=O)S(=O)(=O)C=C3", "ASSAY_VALUE": "> 100 µM (inactive)"}
{"MOLECULE": "O=C(Cc1ccccc1)N/N=C(/c1nc2ccc([N+](=O)[O-])cc2nc1O)C(O)c1ccccc1Cl (stereo unspecified)", "ASSAY_VALUE": "> 100 µM (inactive)"}
{"MOLECULE": "O=C1c2c(O)cc(O)cc2OC(c2ccc(O)cc2O)C1O (stereo unspecified)", "ASSAY_VALUE": "> 100 µM (inactive)"}
{"MOLECULE": "COc1cc(C2c3cc4c(cc3[C@@H](Nc3cccc(CO)c3)C3COC(=O)[C@H]23)OCO4)cc(OC)c1O (stereo partly specified)", "ASSAY_VALUE": "0.375 µM (active)"}
{"MOLECULE": "C=CCNC(=O)N(CCC)CCCC(NC(C)=O)C(=O)NCc1ccccc1 (stereo unspecified)", "ASSAY_VALUE": "> 100 µM (inactive)"}
{"MOLECULE": "Oc1ccnc(SCc2ccc(Cl)cc2)n1", "ASSAY_VALUE": "> 100 µM (inactive)"}
{"MOLECULE": "CN1C(=O)N(c2nc3ccccc3[nH]2)C(C)(C)C1=O", "ASSAY_VALUE": "> 100 µM (inactive)"}
{"MOLECULE": "CC(C)(Oc1ccc(Cl)cc1)C(=O)N(C(=O)N1CCC(c2ccccc2)CC1)c1ccccc1", "ASSAY_VALUE": "8.79 µM (inactive)"}
{"MOLECULE": "O=C(NC(Cc1ccc(Cl)cc1)C(=O)O)c1ccc(I)cc1 (stereo unspecified)", "ASSAY_VALUE": "> 100 µM (inactive)"}
{"MOLECULE": "O=C1C(=Cc2ccccc2[N+](=O)[O-])N=C(c2ccccc2)N1n1c(-c2ccccc2)nc2ccccc2c1=O", "ASSAY_VALUE": "20.2 µM (inactive)"}
{"MOLECULE": "FC(F)(Sc1nc2ccccc2[nH]1)c1nc2ccccc2o1", "ASSAY_VALUE": "> 100 µM (inactive)"}
{"MOLECULE": "CCCCOC(=O)CNC(=O)OC/C=C/C#CC#C/C=C/COC(=O)NCC(=O)OCCCC", "ASSAY_VALUE": "> 10 µM (inactive)"}
{"MOLECULE": "CC(C)CCNc1ncnc2[nH]ncc12", "ASSAY_VALUE": "> 100 µM (inactive)"}
{"MOLECULE": "Cn1ncc2ccc3[nH]c4ccccc4c(=O)c3c21", "ASSAY_VALUE": "20.6 µM (inactive)"}
{"MOLECULE": "O=C(O)C(NCc1ccccc1)C(NCc1ccccc1)C(=O)O (stereo unspecified)", "ASSAY_VALUE": "> 100 µM (inactive)"}
{"MOLECULE": "O=c1oc2ccc([N+](=O)[O-])cc2c(Nc2ccc3c(c2)S(=O)(=O)c2ccccc2O3)c1[N+](=O)[O-]", "ASSAY_VALUE": "> 100 µM (inactive)"}

---

Tested on: ACHN
Assay: NCI tumour cell line growth inhibition, 48 h
The source made the active and inactive calls. Cut-off read from the data, not from the text of the source: active = GI50 up to about 1.1 µM and inactive = higher.
Labels: true (1) = active, false (0) = inactive

{"MOLECULE": "CC(=O)NNc1nc(C)c(C(=O)NNC(=O)C(=O)Nc2ccc(Cl)cc2Cl)s1", "CAT": "false (0)"}
{"MOLECULE": "COC1(OC)CC2C(=O)N(Cc3ccccc3)C1C(S(=O)(=O)c1ccccc1)C2S(=O)(=O)c1ccccc1 (centres undefined)", "CAT": "false (0)"}
{"MOLECULE": "C[C@]12CC[C@H](O)C[C@H]1CC[C@@H]1[C@@H]2CC[C@]2(C)[C@@H](C3=CC(=O)OC3)[C@@H](O)C[C@]12O", "CAT": "true (1)"}
{"MOLECULE": "Cc1c(CN2CCOCC2)c(CN2CCOCC2)c(C)n1-c1ccc(Cl)cn1", "CAT": "false (0)"}
{"MOLECULE": "CC(=O)/C(=N\\O)C(=O)Nc1ccc(Cl)cc1Cl", "CAT": "false (0)"}
{"MOLECULE": "COc1cc(S(=O)(=O)Nc2nc(-c3ccc(N4C(=O)/C(=C/c5ccccc5[N+](=O)[O-])N=C4c4ccccc4)cc3)cs2)ccc1Cl", "CAT": "false (0)"}
{"MOLECULE": "Cc1c2ccnc(O)c2cc2c(=O)c3cnccc3[nH]c12", "CAT": "false (0)"}
{"MOLECULE": "C=C[C@]1(O)CCC[C@]2(C)C(=O)CCC12C (some centres undefined)", "CAT": "false (0)"}
{"MOLECULE": "O=C1/C(=C/C=C/c2ccccc2)CCC1CNc1ccccc1 (centres undefined)", "CAT": "false (0)"}

---

Test system: SW-620
Test: NCI tumour cell line growth inhibition, 48 h
The source made the active and inactive calls. Cut-off read from the data, not from the text of the source: active = GI50 up to about 1.1 µM and inactive = higher.
Labels: active, inactive

{"MOLECULE": "N=C(N)NC(=N)Nc1c(F)c(F)c(F)c(F)c1F", "CAT": "inactive"}
{"MOLECULE": "Cc1[nH]n(-c2ccccc2)c(=O)c1C(N(CCc1ccccc1)C1=NCC(C)S1)(C(F)(F)F)C(F)(F)F (stereo unspecified)", "CAT": "inactive"}
{"MOLECULE": "N=C1NC(=O)N2CC12 (stereo unspecified) [IMEXON]", "CAT": "inactive"}
{"MOLECULE": "N#CC(C#N)=CSc1ccccc1", "CAT": "inactive"}
{"MOLECULE": "Cc1cc(CN2CCCCC2)c(O)c(CN2CCCCC2)c1", "CAT": "inactive"}
{"MOLECULE": "O=c1cc(-c2ccccc2F)[nH]c2cc3c(cc12)OCO3", "CAT": "active"}
{"MOLECULE": "O=C(O)CNC(=O)C1NC(C(F)(F)F)(C(F)(F)F)OC1(C(F)(F)F)C(F)(F)F (stereo unspecified)", "CAT": "inactive"}
{"MOLECULE": "O=c1c2cc(I)ccc2nc(-c2cccs2)n1O", "CAT": "inactive"}
{"MOLECULE": "FC(F)(Sc1nc2ccccc2[nH]1)c1nc2ccccc2o1", "CAT": "inactive"}
{"MOLECULE": "CC(=O)Oc1cc(C)c(OC(C)=O)c2c1[C@H]1CC[C@]3(C)[C@@H](OC(C)=O)CC[C@H]3[C@@H]1CC2", "CAT": "inactive"}
{"MOLECULE": "O=C1O[C@H](c2ccccc2)[C@@H]2CC3(CCN12)OCCO3", "CAT": "inactive"}

Taken from ChEMBL document CHEMBL1201862.
